target: CDK4/Cyclin D1 (Homo sapiens (Human)); assay: CDK4/Cyclin D1 Mobility Shift Assay (MSA); format: biochemical; details: 0.2 mM ATP, read-out: CDK4/ CyclinD1 MSA IC50
Sequence (P11802 whole entry): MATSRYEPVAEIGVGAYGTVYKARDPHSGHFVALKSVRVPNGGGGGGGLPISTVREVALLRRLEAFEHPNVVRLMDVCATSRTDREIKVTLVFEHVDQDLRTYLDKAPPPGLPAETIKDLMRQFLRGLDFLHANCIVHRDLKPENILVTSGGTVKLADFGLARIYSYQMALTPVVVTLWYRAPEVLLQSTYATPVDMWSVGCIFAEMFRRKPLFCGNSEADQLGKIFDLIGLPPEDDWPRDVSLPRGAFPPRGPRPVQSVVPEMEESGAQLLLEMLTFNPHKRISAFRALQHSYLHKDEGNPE
Sequence (P24385 whole entry partner): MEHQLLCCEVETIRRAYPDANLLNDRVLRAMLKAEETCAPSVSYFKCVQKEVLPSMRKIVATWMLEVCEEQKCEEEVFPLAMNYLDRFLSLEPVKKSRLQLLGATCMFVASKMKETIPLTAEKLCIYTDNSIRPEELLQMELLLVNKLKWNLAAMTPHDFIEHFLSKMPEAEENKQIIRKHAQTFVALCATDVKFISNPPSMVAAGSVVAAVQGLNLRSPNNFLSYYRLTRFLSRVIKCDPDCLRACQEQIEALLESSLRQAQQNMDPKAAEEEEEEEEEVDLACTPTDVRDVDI
pIC50: −log10 of the molar value.
# pIC50 listing for each entry below

| compound | pIC50 |
| --- | --- |
| CC1(C)CC2(CN(c3cccc4cnc(NC5CCN(S(C)(=O)=O)CC5)nc34)C2)C1 | 6.30 to 6.70 |
| CS(=O)(=O)N1CCC(Nc2ncc3cccc(N4CCC(C#N)(C5CC5)C4)c3n2)CC1 (stereo not drawn) | > 6.70 |
| CS(=O)(=O)N1CCC(Nc2ncc3cccc(N4CC5(CCS5(=O)=O)C4)c3n2)CC1 | > 6.70 |
| CS(=O)(=O)N1CCC(Nc2ncc3cccc(N4CC5(CC(O)C5)C4)c3n2)CC1 | > 6.70 |
| CC(=O)N1CCC2(CCN(c3cccc4cnc(NC5CCN(S(C)(=O)=O)CC5)nc34)C2)C1 (stereo not drawn) | > 6.70 |
| CC(=O)N1CCC2(CCN(c3cccc4cnc(Nc5ccc(N6CC7(COC7)C6)cn5)nc34)C2)C1 (stereo not drawn) | 6.30 to 6.70 |
| CS(=O)(=O)N1CCC(Nc2ncc3cccc(N4CCC5(CCC(F)(F)C5)C4)c3n2)CC1 (stereo not drawn) | > 6.70 |
| CS(=O)(=O)N1CCC(Nc2ncc3cccc(N4CCC5(CCC(F)(F)CC5)C4)c3n2)CC1 | > 6.70 |
| CS(=O)(=O)N1CCC(Nc2ncc3cccc(N4CCC5(CNC5)C4)c3n2)CC1 | > 6.70 |
| CC(=O)N1CCC2(CCN(c3cccc4cnc(Nc5ccc(N6CC7(C6)CC(F)(F)C7)cn5)nc34)C2)C1 (stereo not drawn) | 6.30 to 6.70 |

Exam item: Please report the recorded pIC50 for CC(=O)N1CCC2(CCN(c3cccc4cnc(Nc5ccc(N6CCN(C)CC6)cc5)nc34)C2)C1 (stereo not drawn) .
Marked response: > 6.70

Exam item: Another compound to look at: CCN1CC2(C1)CN(c1ccc(Nc3ncc4cccc(N5CC6(CCS6(=O)=O)C5)c4n3)nc1)C2
Marked response: > 6.70

Exam item: And what about the compound CS(=O)(=O)N1CCC(Nc2ncc3cccc(N4CCN(C5CC5)CC4)c3n2)CC1 ?
Marked response: 6.30 to 6.70

Exam item: FC(F)c1cc(N2CCC3(C2)CC3(F)F)c2nc(NC3[C@H]4CNC[C@@H]34)ncc2c1 (stereo partly drawn) , same question.
Marked response: > 6.70

Exam item: Same question, CCN(CC)C1CCN(c2cccc3cnc(NC4CCN(S(C)(=O)=O)CC4)nc23)CC1 this time
Marked response: 6.30 to 6.70

Exam item: Check CS(=O)(=O)N1CCC(Nc2ncc3cccc(N4CCC5(CCC5(F)F)C4)c3n2)CC1 (stereo not drawn) too.
Marked response: > 6.70

Exam item: And for CS(=O)(=O)N1CCC(Nc2ncc3cccc(N4CC(CC#N)C4)c3n2)CC1 ?
Marked response: > 6.70

Exam item: Same thing, different compound: CS(=O)(=O)N1CCC(Nc2ncc3cccc(N4CCCC5(COC5)C4)c3n2)CC1
Marked response: 5.70 to 6.30

Exam item: Same question for CC(=O)N1CCC2(CCN(c3c(F)ccc4cnc(NC5CCN(S(C)(=O)=O)CC5)nc34)C2)C1 (stereo not drawn) please.
Marked response: > 6.70

Exam item: And for CN1CC2(CCN(c3cccc4cnc(NC5CCN(S(C)(=O)=O)CC5)nc34)C2)C1 ?
Marked response: > 6.70

Exam item: Query CS(=O)(=O)N1CCC(Nc2ncc3cccc(N4CCC5(C4)CC(F)(F)C5)c3n2)CC1 next
Marked response: > 6.70
